EXPERIMENTAL_SYSTEM: mouse CRF receptor, type 2β (mouse) (UniProt Q60748)
ASSAY_PROCEDURE: SPA competition with 0.05 nM [125I-Tyr0]Svg, HEK-293 membranes; 95% CI (0.72-1.1)
Ends that are not written are not given here.
OBSERVED_PROPERTY: IC50 (pM)

binder="QGPPISIDLSLELLRKMIEIEKQEKEKQQAANNRLLLDTI (ligand, ends and bridges not checked) [sauvagine]" observed_property=IC50 observed_result=920
